# test_target: human activated kallikrein enzyme (Homo sapiens, UniProt P03952)
# Sequence (P03952 391-638 limits assumed): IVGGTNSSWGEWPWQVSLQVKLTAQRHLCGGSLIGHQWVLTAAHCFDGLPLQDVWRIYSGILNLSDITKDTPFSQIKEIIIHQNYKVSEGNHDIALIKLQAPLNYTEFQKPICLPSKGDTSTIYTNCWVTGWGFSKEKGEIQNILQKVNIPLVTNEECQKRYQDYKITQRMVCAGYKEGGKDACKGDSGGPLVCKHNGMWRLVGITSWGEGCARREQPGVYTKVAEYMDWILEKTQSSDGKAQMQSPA
# Sequence (P03952 20-390 partner limits assumed): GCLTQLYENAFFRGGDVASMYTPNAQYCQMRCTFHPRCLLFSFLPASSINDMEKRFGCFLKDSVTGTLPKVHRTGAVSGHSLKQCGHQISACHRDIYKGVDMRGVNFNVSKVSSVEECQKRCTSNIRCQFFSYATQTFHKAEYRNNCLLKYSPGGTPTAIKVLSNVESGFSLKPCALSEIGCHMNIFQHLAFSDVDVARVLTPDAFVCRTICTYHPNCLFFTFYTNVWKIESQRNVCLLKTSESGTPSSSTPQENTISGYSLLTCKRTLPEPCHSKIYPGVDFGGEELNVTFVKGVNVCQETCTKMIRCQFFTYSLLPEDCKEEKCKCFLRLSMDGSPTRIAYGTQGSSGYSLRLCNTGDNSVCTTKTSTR
# test_name: Inhibition of activated plasma kallikrein, fluorogenic peptide substrate (PFR-AMC) assay, 500 pM enzyme format
# condition_summary: 500 pM activated kallikrein, 300 uM PFR-AMC, 30 min preincubation, 10 min reaction, room temperature; read-out: Primary Dose Response Assay: Average EC50
pEC50: −log10 of the molar value.
property_measured: pEC50

{"columns": ["molecule", "pEC50"],
 "data": [
  ["Cc1ccnc([C@H]2C[C@@H]2c2cc(N3CCS(=O)(=O)CC3)c3ccc(NCc4cn5cc(C6CC6)cc(N6CC(=O)N(C)C6=O)c5n4)cc3n2)n1", "≥ 9.00"],
  ["COc1cc(NCc2cn3cc(C4CC4)cc(N4CC(=O)N(C)C4=O)c3n2)cc2nc([C@H]3C[C@@H]3c3nccc(C)n3)ccc12", "≥ 9.00"]
]}

Measured pEC50 of Cc1ccnc([C@H]2C[C@@H]2c2cc(N3CC4(COC4)C3)c3ccc(NCc4cn5cc(C6CC6)cc(N6CC(=O)N(C)C6=O)c5n4)cc3n2)n1 : ≥ 9.00

pEC50 reading for Cc1ccnc([C@H]2C[C@@H]2C2=NS(=O)(=O)c3cc(Cl)c(NCc4cn5cc(C6CC6)ccc5n4)cc3N2)n1 (racemic) : ≥ 9.00

Sample Cc1ccnc([C@H]2C[C@@H]2C2=NS(=O)(=O)c3ccc(N(C)Cc4cn5cc(C6CC6)ccc5n4)cc3N2)n1 (racemic) ; pEC50 observed: ≥ 9.00

Per the records, this molecule ( Cc1ccnc(C2CC2c2cc(=O)c3ccc(NCc4cn5cc(C6CC6)cc(N6CC(=O)N(C)C6=O)c5n4)cc3[nH]2)n1 (single isomer, unassigned) [Example 12] ) has pEC50 equal to ≥ 9.00

Lookup result for Cc1ccnc([C@H]2C[C@@H]2c2cnc3ccc(NCc4cn5cc(C6CC6)cc(N6CC(=O)N(C)C6=O)c5n4)cc3n2)n1 (racemic) ; measured pEC50: 5.19 to 7.00

For COc1cc2ccc([C@H]3C[C@@H]3c3nccc(C)n3)nc2cc1NCc1cn2cc(C3CC3)cc(N3CC(=O)N(C)C3=O)c2n1 (racemic) the molecule record lists pEC50 as ≥ 9.00

For reference, reported pEC50 for CCN1CCN(c2cc(C3CC3)cn3cc(CNc4ccc5ccc([C@H]6C[C@@H]6c6nccc(C)n6)nc5c4)nc23)CC1 (racemic) stands at ≥ 9.00

###

List of EC50 values.
# test_target: human activated kallikrein enzyme (Homo sapiens)
# test_name: Inhibition of activated plasma kallikrein, fluorogenic peptide substrate (PFR-AMC) assay, 500 pM enzyme format
# condition_summary: 500 pM activated kallikrein, 300 uM PFR-AMC, 30 min preincubation, 10 min reaction, room temperature; read-out: Primary Dose Response Assay: Average EC50

# example entries with known answers
{"columns": ["compound", "EC50"],
 "data": [
  ["Cc1ccnc([C@H]2C[C@@H]2C2=NS(=O)(=O)c3ccc(NCc4cn5cc(C6CC6)cc(F)c5n4)cc3N2)n1", "≤ 1 nM"],
  ["Cc1ccnc([C@H]2C[C@@H]2c2ncc3cnc(NCc4cn5cc(C6CC6)cc(N6CC(=O)N(C)C6=O)c5n4)cc3n2)n1 (racemic)", "100 to 6500 nM"],
  ["Cc1ccnc([C@@H]2C[C@H]2C2=NS(=O)(=O)c3ccc(NCc4cn5cc(C6CC6)ccc5n4)cc3N2)n1 (single isomer, unassigned)", "10 to 100 nM"],
  ["COc1cc([C@H]2C[C@@H]2c2nccc(C)n2)nc2cc(NCc3cn4cc(C5CC5)cc(N5CC(=O)N(C)C5=O)c4n3)ccc12 (racemic)", "≤ 1 nM"],
  ["O=c1nc([C@H]2C[C@@H]2c2cccc(Cl)c2)[nH]c2cc(NCc3cn4cc(C5CC5)ccc4n3)ccc12", "10 to 100 nM"]
]}

Assay human activated kallikrein enzyme (Homo sapiens), sample Cc1ccnc([C@H]2C[C@@H]2c2ccc3ccc(NCc4cn5cc(C6CC6)cc(N6CC(=O)N(C)C6=O)c5n4)cc3n2)n1 (single isomer, unassigned) [Example 59] , EC50 read: ≤ 1 nM
